Measured growth by item
- System: SR leukemia
- PROTOCOL DESCRIPTION: NCI-60 one-dose screen, 48 h (100 = growth as untreated, 0 = no growth, -100 = all killed)
- PROTOCOL CONDITIONS: 10 µM unless noted
About 83,000 compounds went through this panel and 20% of them were active in at least one assay; those are over-represented in the sample as a whole.
Write the value in % as a bare number.

Example results:
N#Cc1c(NC(=O)c2ccccc2C(F)(F)F)sc2c1CCC(=O)C2	20.8
COC1=C(c2ccccc2)C(=O)C(OC)=C(c2ccccc2)C1=O	79.8
Cc1ccc(/C=C/CC(=O)Nc2ccc(C(=O)Nc3ccc(F)cc3N)nc2)cn1	31.4
CNC(=O)c1cc(Oc2ccc3nc(NC(=O)c4cc(C)cc(C)c4)sc3c2)ccn1	30.9
CNC(=O)c1cc(Oc2ccc3nc(NC(=O)c4cccc(C(F)(F)F)c4)sc3c2)ccn1	111
Oc1ccc(CSc2nnc(-c3ccc(Oc4ccccc4)cc3)n2-c2ccccc2)c2cccnc12	45.8
CCN1C(=O)N(CC)C2SC(N/N=C/c3ccc(F)cc3)=NC21 (configuration not stated)	19.4
CCNC(=NCCCN(C)C)N/C(N)=N/c1nc2ccccc2s1	55.1

Output measured growth for this item: CCN1C(=O)N(CC)C2SC(N/N=C/c3cccs3)=NC21 (configuration not stated)
15.1

Give the measured growth for COc1cc(/C=C/C(=O)c2ccc(NC(=O)COc3cccc4cccnc34)cc2)cc(OC)c1OC
11.4

###

- System: A498 renal
- PROTOCOL DESCRIPTION: NCI-60 one-dose screen, 48 h (100 = growth as untreated, 0 = no growth, -100 = all killed)
- PROTOCOL CONDITIONS: 10 µM unless noted
This is part of a sample that, as a whole, favours compounds with a hit. Of some 83,000 tested, about 20% had one in any assay.
Attribute: growth
Please reply with the bare figure in % and do not write the unit itself.

Look over these answered cases.
Cc1ccc(NC(=O)c2cccc(CN3CCN(C)CC3)c2)cc1Oc1ccc(-c2[nH]nc3ncnc(N)c23)cc1	89.2
CN1CCN(c2ccc(NC(=O)Nc3ccc4c(ccn4-c4cccc(C(N)=O)n4)c3)cc2C(F)(F)F)CC1	85.3
C/C=C/[C@@H]1C=C[C@@H]2C[C@H](C)CC[C@H]2[C@]1(C)/C(O)=C1/C(=O)[C@H](CO)N(C)C1=O	43.5
COc1ccc2c(c1)oc1c3[nH]c4ccccc4c3c3c(c21)C(=O)N(O)C3=O	-1.48
CC1(C)CC[C@]2(C(=O)N3CCCNCC3)CC[C@]3(C)C(=CC[C@@H]4[C@@]5(C)CCC(=O)C(C)(C)[C@@H]5CC[C@]43C)[C@H]2C1	109
COc1cc(/C=N/n2cnc3oc(-c4ccccc4)cc3c2=N)cc(CN2CCN(C)CC2)c1O	72.2
CN1CCN(c2ccc(C(=O)Nc3cccc(-c4cn(-c5ccc(S(N)(=O)=O)cc5)nn4)c3)cc2C(F)(F)F)CC1	97.6
C/C(=C(/c1ccc(O)cc1)c1ccc(OCCN2CCCC2)cc1)c1ccc(Cl)cc1	56.5
Cc1ccc(-c2csc(N/N=C/c3nc4ccccc4n3C3CC3)n2)cc1	78.3
CN1CCN(c2ccc(C(=O)/C=C/c3ccc(Cl)c(C(F)(F)F)c3)cc2)CC1	81.6

Consider now this further compound.
Please supply the value of reported growth for the item O=S(=O)(Nc1ccc(I)c(Cl)c1)c1ccc(-c2cnc(C3CC3)o2)cc1
2.08

###

- Test system: NCI-H226 lung
- PROTOCOL DESCRIPTION: NCI-60 one-dose screen, 48 h (100 = growth as untreated, 0 = no growth, -100 = all killed)
- PROTOCOL CONDITIONS: 10 µM unless noted
The panel holds about 83,000 compounds, 20% with a hit somewhere; the sample as a whole holds those more often. Active and inactive are the calls of the source. How the source made its calls: active means growth percent below 10; inactive means the rest.
Measured growth values are reported for all entries that follow.

# annotated cases, reported growth shown
O=C(CCCCCCN1CC(=O)N2[C@@H](c3ccc(Cl)c(F)c3)c3[nH]c4ccccc4c3C[C@H]2C1=O)NO	101% (inactive)
CCOC(=O)c1c(Nc2ccccc2)nn2c(-c3ccc(Br)cc3)ccnc12	63.3% (inactive)
CN1CCN(c2nc(-c3cnc4ccccc4n3)cc3ccccc23)CC1	99.9% (inactive)
CCC(C)[C@H]1OC(=O)[C@H](C(C)C)N(C)C(=O)[C@@H](C(C)C)OC(=O)[C@H](C(C)C)N(C)C(=O)[C@@H](C(C)CC)OC(=O)[C@H](C(C)C)N(C)C1=O (stereo not given in full)	19.2% (inactive)

Please look at the following compound next.
Write down measured growth (NCI-H226 lung) for this compound. O=C(NNc1nc2cc(F)cc(F)c2n2cccc12)c1ccncn1
7.28% (active)

###

- System: SF-539 CNS
- PROTOCOL DESCRIPTION: NCI-60 one-dose screen, 48 h
- PROTOCOL CONDITIONS: 10 µM unless noted
This is part of a sample that, as a whole, favours compounds with a hit. Of some 83,000 tested, about 20% had one in any assay. Active and inactive are the calls of the source. Rule for the calls: active = growth percent below 10; inactive = the rest.
// one of active, inactive, no free text

O=C(NCCCNc1cc(-c2cn(-c3ccccc3)nc2-c2cccc(O)c2)ccn1)Nc1cccc(C(F)(F)F)c1	inactive
Nc1nc(N)c2c(n1)NC(c1ccc(Cl)cc1)CC(c1ccc(Nc3nc(NCCO)nc(Nc4ccc(Cl)cc4)n3)cc1)=N2 (configuration not stated)	inactive
COc1cc2c3c(n(CCCN4CCCCC4)c(=O)c2cc1OC)-c1cc2c(cc1C3=O)OCO2	active
O=c1[nH]c(CNc2ccc(NCc3c(-c4ccccc4)no[n+]3[O-])cc2)nc2c1cnn2-c1ccccc1	inactive
CCCCCCNC(=O)Oc1ccc(/C(=C(/C)c2ccc(OC)cc2)c2ccc(OCCN3CCCC3)cc2)cc1	inactive
CN(C)c1ncc(/C=C2\SC(=S)N(Cc3ccccc3Cl)C2=O)s1	inactive

As a next step, examine the molecule that follows.
How did this test come out for CC1(C)CC[C@]2(C(=O)N3CCCN(CC#N)CC3)CC[C@]3(C)C(=CC[C@@H]4[C@@]5(C)CC[C@H](O)C(C)(C)[C@@H]5CC[C@]43C)[C@H]2C1 ?
inactive

###

- Test system: BT-549 breast
- PROTOCOL DESCRIPTION: NCI-60 one-dose screen, 48 h (100 = growth as untreated, 0 = no growth, -100 = all killed)
- PROTOCOL CONDITIONS: 10 µM unless noted
About 83,000 compounds went through this panel and 20% of them were active in at least one assay; those are over-represented in the sample as a whole.
PROPERTY LABEL: growth (%)
State just the number; it will be interpreted in %.

See these solved cases before continuing.
C=CCn1c(SCC(=O)Nc2cccc(C(=O)/C=C/c3ccc(Cl)cc3)c2)nc2ccccc2c1=O	94.6
O=C(CN1C(=O)CSC1=O)Nc1ccc(C(=O)/C=C/c2cc3ccccc3nc2Cl)cc1	66.1
O=C1NC(=O)c2c1c1c3ccccc3ccc1c1[nH]c3ccccc3c21	7.84
COc1ccc([C@@H]2[C@@H](O)C(=O)N2c2cc(OC)c(OC)c(OC)c2)cc1Cl	-9.18
COC[C@]12CC[C@@H](C)[C@H](C)[C@H]1C1=CC[C@@H]3[C@@]4(C)CCCNC(C)(C)[C@@H]4CC[C@@]3(C)[C@]1(C)CC2	66.1

With those in mind, consider the next compound.
Output measured growth for this item: COc1cc(/C=N/Nc2ccnc3cc(Cl)ccc23)cc(OC)c1O
103

###

- Tested on: HOP-62 NSCLC
- PROTOCOL DESCRIPTION: NCI-60 one-dose screen, 48 h (100 = growth as untreated, 0 = no growth, -100 = all killed)
- PROTOCOL CONDITIONS: 10 µM unless noted
Compounds without any hit were thinned out: in the full panel of roughly 83,000, 20% have a hit.
PROPERTY LABEL: growth (%)
Kindly provide the numeric value in % only, without the unit symbol.

Example entries begin here.
C#C[C@]1(O)CC[C@H]2[C@@H]3CC=C4c5sc(-c6cccc(F)c6)nc5CC[C@]4(C)[C@H]3CC[C@@]21C	91.4
NNC(=O)c1sc2nc(-c3cnccn3)cc(-c3cccs3)c2c1N	91.6
COc1cc(/C=N/n2cnc3oc(-c4ccccc4)cc3c2=N)cc(CN2CCN(C)CC2)c1O	88.1

// next item, growth requested
State, in one line, measured growth of COc1cc(O)c2c(c1)/C=C/C[C@H](O)[C@H](O)C(=O)/C=C\C[C@H](C)OC2=O
51.1

###

- Test system: RPMI-8226 leukemia
- PROTOCOL DESCRIPTION: NCI-60 one-dose screen, 48 h
- PROTOCOL CONDITIONS: 10 µM unless noted
Compounds without any hit were thinned out: in the full panel of roughly 83,000, 20% have a hit. Activity calls are given as the source filed them. The calls were made as follows: active = growth percent below 10; inactive = the rest.
Pick from active, inactive when you respond.

O=C1C[C@@H](c2ccccc2)Oc2c(Cc3ccccc3O)c(O)c(Cc3cc(Cc4cc(Cc5ccccc5O)ccc4O)ccc3O)c(O)c21	inactive
CNC(=O)c1cc(Oc2ccc3nc(NC(=O)c4cc(C)cc(C)c4)sc3c2)ccn1	inactive
COc1ccc(-c2nc(SCCC(C)C)nc(N/N=C\c3ccc(O)cc3)c2C#N)cc1	inactive
NC(=O)c1c(NC(=O)c2cccc(C(F)(F)F)c2F)sc2c1CCC(=O)C2	active

Which outcome was entered for the molecule Cc1occc1-c1nc2s/c(=C\c3cn(-c4ccccc4)nc3-c3ccccc3)c(=O)n2n1 in this test?
inactive

What outcome does the record of this test show for C=C(C)[C@@H]1CC[C@]2(COS(C)(=O)=O)CC[C@]3(C)[C@H](CC[C@@H]4[C@@]5(C)CCCNC(C)(C)[C@@H]5CC[C@]43C)[C@@H]12 ?
inactive

Please share the test call associated with O=C(CN1C(=O)S/C(=C\c2ccccc2)C1=O)Nc1ccc(C(=O)/C=C/c2cc3ccccc3nc2Cl)cc1 .
inactive

Look up the recorded call for O=C(Nc1cc(Cl)cc(Cl)c1)Nc1ccc2oc(=O)ccc2c1 in this test.
active

In this assay, the call recorded for Oc1ccc(-c2nnc(SCc3ccc(O)c4ncccc34)o2)cc1 was what?
active

Outcome logged for COc1ccc(-c2nn(-c3ccccc3)cc2/C=C/C(=O)c2ccc(NC(=O)CCCCCCC(=O)NO)cc2)cc1 in this assay:
inactive

Test call, this molecule: Cc1nn(-c2ccccc2)cc1/C=N/Nc1nc(Nc2ccccc2)nc(Nc2ccc(S(N)(=O)=O)cc2)n1
active

I'd appreciate the recorded outcome for COc1cnc2c(c1)C(=O)c1c-2n(CCCNCC2CC2)c(=O)c2cc(F)ccc12 from this test.
active

Dear colleague, could you share the recorded outcome for CN1CCN(Cc2ccc(NC(=O)c3cncc(C#Cc4cnc5ccc(NC6CCOCC6)nn45)c3)cc2C(F)(F)F)CC1 when you have a moment?
active

Identify the outcome logged in this assay for the molecule shown: CN(c1ccc(Br)cc1)S(=O)(=O)c1ccc(-c2cnc(C3CC3)o2)cc1
inactive

Returns: the outcome recorded for CN1C(=O)N(C)C2C1NN=c1s/c(=C\c3ccccn3)c(=O)n12 (configuration not stated) in this assay.
inactive

Dear all, I need the recorded test outcome for CC(C)(C)CC(C)(C)n1nnnc1C(Nc1ccccc1)c1cc2cccc3ccc4cccc1c4c32 (configuration not stated) , thank you.
inactive

Please indicate how the test categorized O=C(NNc1nc2cc(F)cc(F)c2n2cccc12)c1ccncn1 .
active

Just curious, what result did Cc1ccc(/C=C/c2nn3c(-c4ccco4)nnc3s2)cc1 get here?
inactive

What outcome does the record of this test show for CS(=O)(=O)c1ccc(-c2nn(-c3ccccc3)cc2/C=C/C(=O)c2ccc(Br)cc2)cc1 ?
inactive
